Data origin, for the record: patent US20030113810A1

- System: rGPR41 (Rattus norvegicus, UniProt B2GV46)
- Sequence (B2GV46 whole entry): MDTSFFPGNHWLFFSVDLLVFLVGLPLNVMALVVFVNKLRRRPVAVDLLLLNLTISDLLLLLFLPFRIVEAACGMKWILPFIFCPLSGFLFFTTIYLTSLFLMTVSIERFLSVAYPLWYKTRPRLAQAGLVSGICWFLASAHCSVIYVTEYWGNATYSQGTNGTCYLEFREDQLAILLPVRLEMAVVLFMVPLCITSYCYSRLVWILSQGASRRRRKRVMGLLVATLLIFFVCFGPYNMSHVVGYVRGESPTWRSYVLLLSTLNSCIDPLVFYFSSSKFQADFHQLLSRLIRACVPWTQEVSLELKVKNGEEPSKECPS
- Experimental protocol: Yeast FUS1-lacZ/FUS1-HIS3 reporter assay, rGPR41 in S. cerevisiae MMY22 (Gpa1/Gαo), FDG substrate
- Format: cell-based
- Parameters: expressed in transfected cells; host or cells: S. cerevisiae MMY22 (A1, A5; Gpa1/Gαo integrated) or MMY11 + pRS314-Gpa1/Gαo (A4), transformed with p426GPD-rGPR41
- Applied conditions: pH 7
Measured parameter: Agonism @ rGPR41 Approx. EC50 (M)

>>> df
                          compound  value_reported
0                 O=CC=O [Glyoxal]           Toxic
1  O=C(O)c1cccnc1 [nicotinic acid]        Inactive
2        O=C(O)c1ccccc1 [benzoate]           Toxic
3                CC(C)=O [Acetone]        Inactive

---

- System: rGPR41 (Rattus norvegicus)
- Experimental protocol: Yeast FUS1-lacZ/FUS1-HIS3 reporter assay, rGPR41 in S. cerevisiae MMY22 (Gpa1/Gαo), FDG substrate
- Assay type: cell-based
- Parameters: expressed in transfected cells; host or cells: S. cerevisiae MMY22 (A1, A5; Gpa1/Gαo integrated) or MMY11 + pRS314-Gpa1/Gαo (A4), transformed with p426GPD-rGPR41
- Applied conditions: yeast MMY22 with p462GPD-rGPR41; FDG fluorescence; compounds as salt solutions buffered to pH 7.0; read-out: Agonism @ rGPR41 Approx. EC50
pEC50: −log10 of the molar value.
Each entry below carries its reported pEC50.
Measured parameter: pEC50

>>> print(df.to_string())
                                    molecule  value_reported
 0                            CC(C)(C)C(=O)O           ~3.30
 1   C[C@@H](O)CC(=O)O [D-b-Hydroxybutyrate]           ~2.00
 2    C[C@H](O)CC(=O)O [L-b-Hydroxybutyrate]           ~2.00
 3  CC(O)CC(=O)O (racemic) [DL-b-Hydroxybutyrate]           ~2.00
 4                              CCCCCCC(=O)O           ~4.00
 5            O=C(O)CCCO [γ-hydroxybutyrate]           ~2.00
 6                C=CCCC(=O)O [4-pentenoate]           ~4.52
 7                 CC(C)C(=O)O [Isobutyrate]           ~4.52
 8                    O=C(O)C(=O)O [Oxalate]           ~2.52
 9                    CCCC(=O)O [n-Butyrate]           ~4.30
10                               CCCCCC(=O)O           ~4.52
11                     CCC(=O)O [Propionate]           ~5.30
12      CCCCC(=O)O [Pentanoate (n-valerate)]           ~5.52
13                         CC(=O)O [Acetate]           ~3.00
14                                 O=CC(=O)O           ~1.30
